Sourced from the Human Domainome abundance scans (Beltran et al. 2025)

B1: Peroxisome proliferator-activated receptor delta, residues 71 to 145; numbered along this chain, Q03181 (parent)
chain: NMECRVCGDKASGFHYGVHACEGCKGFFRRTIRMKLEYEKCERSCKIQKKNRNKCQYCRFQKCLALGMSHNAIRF

Variants of: B1
test name: abundance fitness (aPCA) (normalised: wild type 0, dead -1); higher = more abundant; growth selection in yeast, the domain comes from the species named
condition details: Homo sapiens
Assign Condition met whenever abundance fitness does not fall below -0.3; assign Condition not met whenever it does.

Consider the worked cases shown below.
var	class name
F14A	Condition met
K25P	Condition not met
K54H	Condition met
K46N	Condition met
C41W	Condition not met

Continue with the next variant.
Please check the record F27E and state if its abundance fitness is at or above -0.3. Condition not met
